Values were extracted from the kinase profiling compilation of Christmann-Franck et al. (2016).

molecular target: UniProtKB P37023; assay: radiometric filter-binding kinase assay, Kinase HotSpot; details: compound 0.5 µM; ATP 10 µM
Sequence (P37023 whole entry, looked up): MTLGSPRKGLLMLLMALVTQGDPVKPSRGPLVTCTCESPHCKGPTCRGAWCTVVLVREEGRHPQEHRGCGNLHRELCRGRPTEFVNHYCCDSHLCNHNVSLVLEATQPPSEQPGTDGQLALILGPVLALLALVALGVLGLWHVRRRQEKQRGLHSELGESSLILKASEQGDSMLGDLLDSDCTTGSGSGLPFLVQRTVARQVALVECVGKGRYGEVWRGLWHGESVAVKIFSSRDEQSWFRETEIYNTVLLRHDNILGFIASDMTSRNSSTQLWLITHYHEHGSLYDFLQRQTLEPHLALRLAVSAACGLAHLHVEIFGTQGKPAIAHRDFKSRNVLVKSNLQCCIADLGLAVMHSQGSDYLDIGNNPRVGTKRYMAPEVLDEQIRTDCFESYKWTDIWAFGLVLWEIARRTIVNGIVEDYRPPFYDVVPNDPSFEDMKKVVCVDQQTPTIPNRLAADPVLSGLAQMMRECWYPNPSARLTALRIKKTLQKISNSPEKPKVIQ
In this section we review reported residual activity values for a set of compounds.
Please state the value followed by its unit.

Worked cases, residual activity given:
{"columns": ["Mol Smiles", "residual activity"],
 "data": [
  ["COc1cc2ncnc(Nc3ccc(O)c(Br)c3)c2cc1OC", "102%"],
  ["O=c1c2ccccc2[nH]c(=S)n1CCN1CCC(=C(c2ccc(F)cc2)c2ccc(F)cc2)CC1", "101%"],
  ["Cc1cc(Nc2nc(-c3ccccc3)nc3ccccc23)n[nH]1", "115%"],
  ["CCOc1cc2ncnc(Nc3cccc(Br)c3)c2cc1OCC", "103%"]
]}

In: I have this compound here, Cn1cc(/C=C2\C(=O)Nc3ccc(S(N)(=O)=O)cc32)c2ccccc21 , and I need its recorded residual activity.
Out: 99.1%

In: Can you check O=C1NC(=O)c2c1c1c3ccccc3[nH]c1c1[nH]c3cc(Br)ccc3c21 next?
Out: 109%

* * *

In this section we review reported residual activity values for a set of molecules.
molecular target: PAK6 (human); experiment: radiometric filter-binding kinase assay, Kinase HotSpot; settings: compound 0.5 µM; ATP 10 µM
Please state the value followed by its unit.

In: Return residual activity measured with PAK6 (human) given this molecule: CCOc1cc2ncnc(Nc3cccc(Br)c3)c2cc1OCC
Out: 119%

In: Can you check N/C(=N\N=C/c1ccc(-c2cccc([N+](=O)[O-])c2)o1)N[N+](=O)[O-] next?
Out: 99%

In: Can you check COc1cccc(-c2cc(=O)c3ccccc3o2)c1N next?
Out: 95.5%

In: Can you check COc1cc2c(Nc3ccc(Br)cc3F)ncnc2cc1OCC1CCN(C)CC1 next?
Out: 105%

In: Can you check Cn1cc(/C=C2\C(=O)Nc3ccc(S(N)(=O)=O)cc32)c2ccccc21 next?
Out: 90.1%

* * *

In this section we review reported residual activity values for a set of molecules.
molecular target: TLK2 (human) (UniProt Q86UE8); experiment: radiometric filter-binding kinase assay, Kinase HotSpot; conditions: compound 0.5 µM; ATP 10 µM
Sequence (Q86UE8 whole entry, looked up): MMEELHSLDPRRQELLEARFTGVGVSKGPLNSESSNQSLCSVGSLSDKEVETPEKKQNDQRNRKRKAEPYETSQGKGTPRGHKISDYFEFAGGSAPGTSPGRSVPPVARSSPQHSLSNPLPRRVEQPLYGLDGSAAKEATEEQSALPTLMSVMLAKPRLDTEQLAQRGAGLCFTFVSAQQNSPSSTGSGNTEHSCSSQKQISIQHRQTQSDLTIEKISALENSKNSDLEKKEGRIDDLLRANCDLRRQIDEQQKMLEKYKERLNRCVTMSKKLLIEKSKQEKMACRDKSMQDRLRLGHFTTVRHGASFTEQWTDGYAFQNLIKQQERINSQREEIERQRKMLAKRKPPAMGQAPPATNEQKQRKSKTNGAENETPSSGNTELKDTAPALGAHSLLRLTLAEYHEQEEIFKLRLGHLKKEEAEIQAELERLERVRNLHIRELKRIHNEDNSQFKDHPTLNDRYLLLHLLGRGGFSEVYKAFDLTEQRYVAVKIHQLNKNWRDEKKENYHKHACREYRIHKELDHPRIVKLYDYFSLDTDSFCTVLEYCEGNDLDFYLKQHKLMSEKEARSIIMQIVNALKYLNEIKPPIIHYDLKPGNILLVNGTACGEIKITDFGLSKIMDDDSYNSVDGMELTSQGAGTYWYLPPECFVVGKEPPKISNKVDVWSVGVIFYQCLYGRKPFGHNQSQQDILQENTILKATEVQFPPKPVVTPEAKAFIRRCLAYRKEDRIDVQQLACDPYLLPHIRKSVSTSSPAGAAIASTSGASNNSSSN
Express the result in % but write the number alone.

{"columns": ["Mol Smiles", "Measured On", "Units Symbol", "residual activity"],
 "data": [
  ["COc1cc2c(cc1OC)-c1[nH]nc(Nc3cccc(F)c3)c1C2", "TLK2 (human) (UniProt Q86UE8)", "%", 103],
  ["COc1cccc(-c2cc(=O)c3ccccc3o2)c1N", "TLK2 (human) (UniProt Q86UE8)", "%", 84.8],
  ["COc1cc2c(Nc3ccc(Br)cc3F)ncnc2cc1OCC1CCN(C)CC1", "TLK2 (human) (UniProt Q86UE8)", "%", 79.7],
  ["O=C(O)c1ccc2c3c1cccc3c(=O)n1c3ccccc3nc21", "TLK2 (human) (UniProt Q86UE8)", "%", 91.2]
]}

In: I have this molecule here, Nc1ncnc2c1cnn2-c1ccccc1 , and I need its recorded residual activity.
Out: 110

In: Can you check O=C1NC(=O)c2cc(Nc3ccc(F)cc3)c(Nc3ccc(F)cc3)cc21 next?
Out: 93.5

In: Can you check CCc1nc(-c2ccc(OC)cc2)[nH]c1-c1ccncc1 next?
Out: 102

In: Can you check O=c1c(-c2ccc(F)cc2)c(-c2ccncc2)[nH]n1-c1ccc(Cl)cc1 next?
Out: 109

In: Can you check N#C/C(=C1/Nc2ccccc2S1)c1ccnc(NCCc2cccnc2)n1 next?
Out: 102

In: Can you check O=c1cc(N2CCOCC2)oc2c(-c3ccccc3)cccc12 next?
Out: 83.2

In: Can you check FC(F)(F)c1ccc(/C=C/c2nc(COc3ccc(CCCCn4ccnn4)cc3)co2)cc1 next?
Out: 98.6

* * *

target: UniProt O75914; assay: radiometric filter-binding kinase assay, Kinase HotSpot; settings: compound 0.5 µM; ATP 10 µM
Sequence (O75914 whole entry, looked up): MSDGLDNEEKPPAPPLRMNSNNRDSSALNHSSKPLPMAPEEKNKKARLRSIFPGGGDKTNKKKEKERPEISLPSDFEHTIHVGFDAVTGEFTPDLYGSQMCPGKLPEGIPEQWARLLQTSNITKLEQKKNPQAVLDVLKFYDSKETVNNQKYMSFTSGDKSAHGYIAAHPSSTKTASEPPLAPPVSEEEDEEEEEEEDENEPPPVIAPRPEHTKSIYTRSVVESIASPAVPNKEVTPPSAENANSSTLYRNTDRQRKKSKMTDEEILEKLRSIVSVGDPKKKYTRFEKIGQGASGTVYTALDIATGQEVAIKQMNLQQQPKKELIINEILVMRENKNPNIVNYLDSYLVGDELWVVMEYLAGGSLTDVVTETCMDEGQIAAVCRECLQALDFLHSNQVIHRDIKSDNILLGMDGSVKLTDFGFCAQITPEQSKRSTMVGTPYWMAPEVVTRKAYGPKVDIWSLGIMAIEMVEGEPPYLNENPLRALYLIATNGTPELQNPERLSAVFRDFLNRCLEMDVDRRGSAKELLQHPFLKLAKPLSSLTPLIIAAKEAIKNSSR
Measurement Name: residual activity (%)
Express the result in % but write the number alone.

{"columns": ["Mol Smiles", "Units Symbol", "residual activity"],
 "data": [
  ["O=S(=O)(NCCNC/C=C/c1ccc(Br)cc1)c1cccc2cnccc12", "%", 103],
  ["O=c1[nH]c2ccccc2n1C1CCN(Cc2ccc(-c3nc4cc5[nH]cnc5cc4nc3-c3ccccc3)cc2)CC1", "%", 104],
  ["CCOc1cc2ncnc(Nc3cccc(Br)c3)c2cc1OCC", "%", 97.6]
]}

API: the following record is the query input.
In: Return residual activity measured with UniProt O75914 given this molecule: O=c1c(-c2ccc(F)cc2)c(-c2ccncc2)[nH]n1-c1ccc(Cl)cc1
Out: 98.3

* * *

target: KIT (human) (UniProt P10721); experiment: radiometric filter-binding kinase assay, Kinase HotSpot; settings: compound 0.5 µM; ATP 10 µM
Sequence (P10721 whole entry, looked up): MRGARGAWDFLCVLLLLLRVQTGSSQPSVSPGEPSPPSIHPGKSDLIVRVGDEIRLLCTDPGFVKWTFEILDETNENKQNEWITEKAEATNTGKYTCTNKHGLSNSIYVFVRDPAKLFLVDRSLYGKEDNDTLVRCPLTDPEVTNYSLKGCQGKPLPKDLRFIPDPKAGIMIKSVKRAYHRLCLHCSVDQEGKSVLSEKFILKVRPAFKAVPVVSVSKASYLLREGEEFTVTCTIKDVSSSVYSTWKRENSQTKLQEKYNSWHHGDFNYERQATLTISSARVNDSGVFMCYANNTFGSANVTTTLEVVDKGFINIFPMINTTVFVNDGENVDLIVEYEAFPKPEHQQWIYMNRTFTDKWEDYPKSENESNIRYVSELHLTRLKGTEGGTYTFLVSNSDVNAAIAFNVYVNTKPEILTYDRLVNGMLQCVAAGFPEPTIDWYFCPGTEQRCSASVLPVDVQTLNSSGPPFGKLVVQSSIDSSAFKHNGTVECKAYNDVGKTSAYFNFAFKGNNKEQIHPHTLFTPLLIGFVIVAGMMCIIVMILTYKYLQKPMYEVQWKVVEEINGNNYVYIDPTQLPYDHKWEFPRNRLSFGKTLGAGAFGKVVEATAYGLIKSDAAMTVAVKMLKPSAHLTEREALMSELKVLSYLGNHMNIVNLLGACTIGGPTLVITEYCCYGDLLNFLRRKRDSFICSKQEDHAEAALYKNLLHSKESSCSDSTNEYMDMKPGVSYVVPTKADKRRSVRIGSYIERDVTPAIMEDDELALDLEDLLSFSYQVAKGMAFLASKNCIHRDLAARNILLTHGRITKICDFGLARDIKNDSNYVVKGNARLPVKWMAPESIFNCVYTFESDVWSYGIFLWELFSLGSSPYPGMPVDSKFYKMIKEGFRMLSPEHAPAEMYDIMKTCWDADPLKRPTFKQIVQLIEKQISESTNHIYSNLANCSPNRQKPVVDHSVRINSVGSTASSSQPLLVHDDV
In this section we review reported residual activity values for a set of compounds.
Express the result in % but write the number alone.

Worked cases, residual activity given:
{"columns": ["Mol Smiles", "residual activity (%)"],
 "data": [
  ["O=c1c2ccccc2[nH]c(=S)n1CCN1CCC(=C(c2ccc(F)cc2)c2ccc(F)cc2)CC1", 103],
  ["COc1cc2c(Nc3ccc(Br)cc3F)ncnc2cc1OCC1CCN(C)CC1", 71.4],
  ["O=C1NC(=O)c2cc(Nc3ccc(F)cc3)c(Nc3ccc(F)cc3)cc21", 97.2],
  ["O=C1NC(=O)c2c1c1c3ccccc3[nH]c1c1[nH]c3cc(Br)ccc3c21", 128],
  ["O=c1c(-c2ccc(F)cc2)c(-c2ccncc2)[nH]n1-c1ccc(Cl)cc1", 94.9],
  ["COc1cc2c(N3CCN(C(=O)Nc4ccc(OC(C)C)cc4)CC3)ncnc2cc1OCCCN1CCCCC1", 45.1],
  ["FC(F)(F)c1ccc(/C=C/c2nc(COc3ccc(CCCCn4ccnn4)cc3)co2)cc1", 98.8],
  ["N#Cc1c(NC(=O)c2cccc3ccccc23)sc2c1CCCC2", 84.2],
  ["COc1cc2ncnc(Nc3ccc(O)c(Br)c3)c2cc1OC", 97.3]
]}

API: the following record is the query input.
In: I have this compound here, c1ccc(-c2cnc(Nc3ccc(OCCN4CCCC4)cc3)s2)cc1 , and I need its recorded residual activity.
Out: 20.3

* * *

In this section we review reported residual activity values for a set of molecules.
target: CDK6 CCND3 (human) (UniProt P30281+Q00534); experiment: radiometric filter-binding kinase assay, Kinase HotSpot; conditions: compound 0.5 µM; ATP 10 µM
Sequence (P30281 whole entry, looked up): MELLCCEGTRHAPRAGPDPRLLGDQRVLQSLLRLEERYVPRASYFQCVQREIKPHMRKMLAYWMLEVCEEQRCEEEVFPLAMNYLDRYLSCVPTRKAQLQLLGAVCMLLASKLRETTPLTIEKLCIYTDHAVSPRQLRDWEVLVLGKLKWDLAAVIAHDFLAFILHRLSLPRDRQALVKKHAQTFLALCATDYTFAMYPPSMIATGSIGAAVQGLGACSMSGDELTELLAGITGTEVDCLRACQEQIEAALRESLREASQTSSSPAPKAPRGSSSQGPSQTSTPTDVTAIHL
Sequence (Q00534 whole entry, looked up): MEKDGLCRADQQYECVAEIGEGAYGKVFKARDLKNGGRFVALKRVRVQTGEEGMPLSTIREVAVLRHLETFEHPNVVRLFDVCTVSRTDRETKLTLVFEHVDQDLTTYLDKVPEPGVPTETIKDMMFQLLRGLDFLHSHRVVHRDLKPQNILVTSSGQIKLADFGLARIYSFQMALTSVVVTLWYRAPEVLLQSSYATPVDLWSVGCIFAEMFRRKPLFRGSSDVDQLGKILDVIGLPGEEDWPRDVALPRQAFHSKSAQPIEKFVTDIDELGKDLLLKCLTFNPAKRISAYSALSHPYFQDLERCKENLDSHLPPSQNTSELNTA
Express the result in % but write the number alone.

Worked cases, residual activity given:
{"columns": ["Mol Smiles", "Measurement"],
 "data": [
  ["O=C1NC(=O)c2cc(Nc3ccc(F)cc3)c(Nc3ccc(F)cc3)cc21", 89.9],
  ["CCOc1cc2ncnc(Nc3cccc(Br)c3)c2cc1OCC", 104],
  ["CCc1nc(-c2ccc(OC)cc2)[nH]c1-c1ccncc1", 101],
  ["O=C(c1ccccc1)c1ccc(N2CCOCC2)cc1O", 97.7],
  ["COc1cc2c(N3CCN(C(=O)Nc4ccc(OC(C)C)cc4)CC3)ncnc2cc1OCCCN1CCCCC1", 92.7]
]}

In: I have this molecule here, COc1cc2c(cc1OC)-c1[nH]nc(Nc3cccc(F)c3)c1C2 , and I need its recorded residual activity.
Out: 99.5

In: Can you check FC(F)(F)c1ccc(/C=C/c2nc(COc3ccc(CCCCn4ccnn4)cc3)co2)cc1 next?
Out: 90

In: Can you check O=C1NC(=O)c2c1c1c3ccccc3[nH]c1c1[nH]c3cc(Br)ccc3c21 next?
Out: 40.2

In: Can you check c1ccc(-c2cnc(Nc3ccc(OCCN4CCCC4)cc3)s2)cc1 next?
Out: 20.1

In: Can you check O=c1c2ccccc2[nH]c(=S)n1CCN1CCC(=C(c2ccc(F)cc2)c2ccc(F)cc2)CC1 next?
Out: 98.2

In: Can you check N#CCCc1ccc2c(c1)-c1[nH]c3ccc([N+](=O)[O-])cc3c1CC(=O)N2 next?
Out: 26

In: Can you check CC(C)(C)n1nc(Cc2cccc3ccccc23)c2c(N)ncnc21 next?
Out: 97.3

In: Can you check Nc1ncnc2c1cnn2-c1ccccc1 next?
Out: 92.2

* * *

In this section we review reported residual activity values for a set of compounds.
target: CDK7 CCNH MNAT1 (human) (UniProt P50613+P51948+P51946); experiment: radiometric filter-binding kinase assay, Kinase HotSpot; settings: compound 0.5 µM; ATP 10 µM
Sequence (P50613 whole entry, looked up): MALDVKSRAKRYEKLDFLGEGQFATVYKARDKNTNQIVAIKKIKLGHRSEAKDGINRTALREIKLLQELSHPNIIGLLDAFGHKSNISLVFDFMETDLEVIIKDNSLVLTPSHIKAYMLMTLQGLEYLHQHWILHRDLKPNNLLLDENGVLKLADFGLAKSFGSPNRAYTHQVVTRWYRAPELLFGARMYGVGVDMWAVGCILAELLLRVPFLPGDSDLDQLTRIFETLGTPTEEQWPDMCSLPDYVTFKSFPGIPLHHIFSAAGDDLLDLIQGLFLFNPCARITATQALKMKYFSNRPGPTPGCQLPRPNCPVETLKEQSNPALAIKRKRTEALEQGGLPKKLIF
Sequence (P51946 whole entry, looked up): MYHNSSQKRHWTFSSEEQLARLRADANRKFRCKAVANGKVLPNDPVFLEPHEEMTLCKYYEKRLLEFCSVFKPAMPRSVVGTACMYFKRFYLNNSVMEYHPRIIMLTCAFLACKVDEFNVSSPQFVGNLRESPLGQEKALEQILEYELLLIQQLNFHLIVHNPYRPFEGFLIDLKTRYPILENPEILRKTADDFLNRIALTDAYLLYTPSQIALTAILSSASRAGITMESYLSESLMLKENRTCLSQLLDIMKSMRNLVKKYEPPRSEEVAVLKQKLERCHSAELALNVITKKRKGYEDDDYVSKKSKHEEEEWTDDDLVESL
Sequence (P51948 whole entry, looked up): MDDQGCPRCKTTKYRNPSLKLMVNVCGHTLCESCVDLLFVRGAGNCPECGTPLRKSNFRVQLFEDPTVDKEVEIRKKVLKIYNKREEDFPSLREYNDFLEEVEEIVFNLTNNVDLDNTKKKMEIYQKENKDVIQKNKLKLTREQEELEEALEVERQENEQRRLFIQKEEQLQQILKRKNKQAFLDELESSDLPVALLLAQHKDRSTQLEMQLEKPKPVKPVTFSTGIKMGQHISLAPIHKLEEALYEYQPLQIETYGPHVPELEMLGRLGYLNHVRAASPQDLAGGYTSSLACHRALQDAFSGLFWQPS
Express the result in % but write the number alone.

{"columns": ["Mol Smiles", "Units Symbol", "residual activity"],
 "data": [
  ["O=C(c1ccccc1)c1ccc(N2CCOCC2)cc1O", "%", 106]
]}

In: Return residual activity measured with CDK7 CCNH MNAT1 (human) (UniProt P50613+P51948+P51946) given this compound: O=S(=O)(NCCNC/C=C/c1ccc(Br)cc1)c1cccc2cnccc12
Out: 82.8

In: Can you check c1ccc(-c2cnc(Nc3ccc(OCCN4CCCC4)cc3)s2)cc1 next?
Out: 102
